Reference source for all entries: patent US20210139605A1

Below is a list of entries, each paired with its recorded koff value.
- assaySystem: T1, human HER-2 protein (soluble / recombinant, used in SPR) (human, UniProt P04626 23-652)
- T1 construct: also called immobilized HER2 protein; recombinant HER-2
- test: SPR, human HER2 immobilised, Fab flown, 1:1 Langmuir model
- Description: Rate constants of association, dissociation (kₐ, kd) and the equilibrium dissociation constants (KD) were determined for anti-HER2 Fab molecules. Human HER2 protein (50 μg/mL) was immobilised on the SPR sensor chip and was exposed to five different concentrations of each Fab in 2- or 3-fold dilutions over the flow cells. 1:1 Langmuir model was used to derive the constants.
Report the value in s⁻¹ with no unit label.

A selection of reference data follows.
binder="PFB4 Fab (Fab, V domains shown, Printed entries run through CL and CH1 (Fab chains); Label B4 tied to PFB4 by inference) VH: EVQLVQSGGGVVQPGRSLRLSCAASGFTFSSYGMHWVRQAPGKGLEWVAVISYDGSNKYYADSVKGRFTISRDDSKNTLYLQMNSLRAEDTAVYYCAKDRGYYGMDVWGQGTTVTVSS VL: QAVVIQEPSLTVSPGGTVTLTCGSTTGAVTSGHYPSWFQQKPGQAPRALIYSTSNKHSWTPARFSGSLLGGKAALTLSGVQPEDEAEYYCLLYYGGARVFGGGTKLTVLG" testvalue=0.078
binder="PFG3 Fab (Fab, V domains shown, Printed entries run through CL and CH1 (Fab chains); Label G3 tied to PFG3 by inference) VH: EVQLVQSGAEVKKPGTSVTVSCRASGFTFSDYYIHWVRQAPGQGLEWMGWVSAYNGDTNYAQKFQGRVTVTTDTSTSTAYMELRSLRSDDTAVYFCAREIASYSGSYYDYWGQGTLVTVSS VL: QAVVLQEPSFSVSPGGTVTLTCGLTSGAVSSSYYPSWYQQTPGQAPRTLIYNTDIRFSGVPDRFSGSILGNKAALTITGAQADDESDYYCVLYMGSGISVFGGGTKLTVLG" testvalue=0.019
binder="PFE1 Fab (Fab, V domains shown, Printed entries run through CL and CH1 (Fab chains); Label E1 tied to PFE1 by inference) VH: EVQLVQSGGGVVQPGRSLRLSCAASGFTFSSYAMHWVRQAPGKGLEWVAVISYDGSNKYYADSVKGRFTISRDNSKNTLYLQMNSLRAEDTAVYYCARSRGYYGMDVWGQGTTVTVSS VL: DVVMTQSPLSLPVTLGQPASISCTSSQSLVYSDGNTYLNWFQQRPGQSPRRLIYKVSKRDSGVPDRFSGSGSGTDFTLKISRVEAEDVAIYYCMQGTHWPLTFGGGTKVEIKR" testvalue=0.026

Now take the following binder into account.
input: Answer with the recorded koff for the binder listed here: PFF5 Fab (Fab, V domains shown) VH: QVQLQESGPGLVKPSETLSLTCTVSGGSISSSSYYWGWIRQPPGKGLEWIGSIYYSGSTYYNPSLKSRVTISVDTSKNQFSLRLSSVSAADTAVYYCARYAPDSSGYLVAFDIWGQGTMVTVSS VL: QAVVIQEPSFSVSPGGTVTLTCGLSSGSVSTTYYPSWYQQTPGQAPRTLIYSTNTRSSGVPDRFSGSILGNKAALTITGAQADDESDYYCVLYMGNGISVFGGGTKLTVLG
output: 0.014
